The measurements presented in this section are drawn from paper PMC3353862.

Collected IC50 values appear next to each entry.
- Tested on: bacterial protein synthesis (aminoacylation/translation system)
- Assay Name: aminoacylation/translation (A/T) assay
- Assay type: biochemical
- Condition Description: A/T assay, Table 1; read-out: IC50
Unit µM implied. Number only.

Cn1c(=O)n(C)c2cc(CN3CCc4nc(-c5ccccn5)[nH]c(=O)c4C3)ccc21 | 2.4
COc1ccc(CN2CCc3nc(-c4ccccn4)[nH]c(=O)c3C2)cc1O | 4.8
COc1cc(C)c(CN2CCc3nc(-c4ccccn4)[nH]c(=O)c3C2)cc1OC | 1.5
COc1ccc(CN2CCc3nc(-c4ccccn4)[nH]c(=O)c3C2)c(C)c1C | 4.3
O=C(COc1ccc(CN2CCc3nc(-c4ccccn4)[nH]c(=O)c3C2)cc1)N1CCCC1 | 3.2
O=c1[nH]c(-c2ccccn2)nc2c1CN(Cc1cccc(Cl)c1)CC2 | 2.1

Turning to the following molecule.
Entry under review: COc1ccc(CN2CCc3nc(-c4ccccn4)nc(O)c3C2)cc1 . Reported IC50?
2.6

====

- Tested on: S. aureus
- Assay Name: Broth microdilution MIC testing
- Format: cell-based, Staphylococcus aureus
- Condition Description: Staphylococcus aureus, read-out: MIC S. aureus
Measurement Type: MIC (µg/mL)
Unit µg/mL implied. Number only.

Fill in the recorded MIC for this molecule, with S. aureus as test system: Oc1ccccc1CN1CCc2nc(-c3ccccn3)nc(O)c2C1 [Compound 321522]
128

Same again, this time with O=C(Cc1ccc(Cl)cc1)N1CCc2nc(-c3ccccn3)[nH]c(=O)c2C1 [Compound 323369]
128

Same again, this time with Oc1nc(-c2ccccn2)nc2c1CN(Cc1ccccc1)CC2 [Compound 321524]
128

Same again, this time with O=c1[nH]c(-c2ccccn2)nc2c1CCN(Cc1ccc(Cl)cc1)CC2 [Compound 332058]
16

Same again, this time with O=c1[nH]c(-c2ccccn2)nc2c1CN(CCc1ccc(Cl)cc1)CC2 [Compound 323370]
16

====

- Tested on: S. pneumoniae
- Assay Name: Broth microdilution MIC testing
- Format: cell-based, Streptococcus pneumoniae
- Condition Description: S. pneumoniae
Collected MIC S. pneumo values appear next to each entry.

COc1cc(Cl)cc(CN2CCc3nc(-c4ccccn4)[nH]c(=O)c3C2)c1OC | 4 µg/mL
COc1cc(CN2CCc3nc(-c4ccccn4)[nH]c(=O)c3C2)ccc1OCCO | > 128 µg/mL
COc1cc2c(cc1CN1CCc3nc(-c4ccccn4)[nH]c(=O)c3C1)OCO2 | 32 µg/mL
O=c1[nH]c(-c2ccccn2)nc2c1CN(Cc1cc(F)ccc1F)CC2 | 8 µg/mL
O=c1[nH]c(-c2ccccn2)nc2c1CN(Cc1cccc(Cl)c1Cl)CC2 | 2 µg/mL

Entry under review: O=c1[nH]c(-c2ccccn2)nc2c1CN(Cc1cc3c(cc1Cl)OCO3)CC2 . Reported MIC S. pneumo?
64 µg/mL

Same again, this time with COc1cccc(CN2CCc3nc(-c4ccccn4)[nH]c(=O)c3C2)c1O
128 µg/mL

====

- Tested on: S. pneumoniae
- Assay Name: Broth microdilution MIC testing
- Type: cell-based, Streptococcus pneumoniae
- Condition Description: S. pneumoniae
Collected MIC S. pneumo values appear next to each entry.
Unit µg/mL implied. Number only.

These recorded examples may help you get a feel for the data.
COc1cc(CN2CCc3nc(-c4ccccn4)[nH]c(=O)c3C2)cc2c1OCO2 [Compound 323205] | 32
O=c1[nH]c(-c2ccccn2)nc2c1CN(Cc1cc(F)cc(F)c1)CC2 [Compound 323230] | 8
CC(C)Oc1ccc(CN2CCc3nc(-c4ccccn4)[nH]c(=O)c3C2)cc1 [Compound 323365] | 4

Turning to the following molecule.
Fill in the recorded MIC S. pneumo for this molecule, with S. pneumoniae as test system: O=c1[nH]c(-c2ccccn2)nc2c1CN(Cc1cc(Cl)cc(Cl)c1)CC2 [Compound 323339]
4

====

- Test system: H. influenzae
- Assay Name: Broth microdilution MIC testing
- Type: cell-based, Haemophilus influenzae
- Condition Description: H. influenzae
Measurement Type: MIC H. flu

These recorded examples may help you get a feel for the data.
COc1cc(CN2CCc3nc(-c4ccccn4)[nH]c(=O)c3C2)ccc1O | 64 µg/mL
CN(C)Cc1ccc(CN2CCc3nc(-c4ccccn4)[nH]c(=O)c3C2)cc1 | > 128 µg/mL
O=c1[nH]c(-c2ccccn2)nc2c1CN(Cc1ccc(Cl)c(Cl)c1)CC2 | 2 µg/mL
O=c1[nH]c(-c2ccccn2)nc2c1CN(Cc1cc(Cl)cc(Cl)c1)CC2 | 8 µg/mL
O=c1[nH]c(-c2ccccn2)nc2c1CN(Cc1ccccc1OCc1ccccn1)CC2 | 64 µg/mL
CCOCc1cc(CN2CCc3nc(-c4ccccn4)[nH]c(=O)c3C2)ccc1OC | 64 µg/mL
O=c1[nH]c(-c2ccccn2)nc2c1CN(Cc1ccccc1Cl)CC2 | 4 µg/mL

Turning to the following compound.
Entry under review: Cc1cc2c(cc1CN1CCc3nc(-c4ccccn4)[nH]c(=O)c3C1)OCO2 . Reported MIC H. flu?
> 128 µg/mL

====

- System: E. coli tolC mutants
- Assay Name: Broth microdilution MIC testing
- Format: cell-based, Escherichia coli
- Condition Description: E. coli tolC mutants
Measurement Type: MIC E. coli tolC (µg/mL)
Unit µg/mL implied. Number only.

COc1cc2c(cc1CN1CCc3nc(-c4ccccn4)[nH]c(=O)c3C1)OCO2 [Compound 323233] | 64
O=c1[nH]c(-c2ccccn2)nc2c1CN(Cc1ccccc1Cl)CC2 [Compound 323219] | 8

Entry under review: O=c1[nH]c(-c2ccccn2)nc2c1CN(Cc1ccc(Cl)cc1)CC2 [Compound 323216] . Reported MIC E. coli tolC?
8

Same again, this time with CN(C)c1ccc(CN2CCc3nc(-c4ccccn4)[nH]c(=O)c3C2)cc1 [Compound 323218]
128

Same again, this time with O=c1[nH]c(-c2ccccn2)nc2c1CN(Cc1ccccc1OCc1ccccn1)CC2 [Compound 323192]
128

Same again, this time with CC(C)Oc1cccc(CN2CCc3nc(-c4ccccn4)[nH]c(=O)c3C2)c1 [Compound 323229]
16

Same again, this time with CCOc1ccc(CN2CCc3nc(-c4ccccn4)[nH]c(=O)c3C2)cc1Cn1ccnc1 [Compound 323239]
64

Same again, this time with C=CCOc1ccccc1CN1CCc2nc(-c3ccccn3)[nH]c(=O)c2C1 [Compound 323194]
16

Same again, this time with CC(C)Oc1ccc(CN2CCc3nc(-c4ccccn4)[nH]c(=O)c3C2)cc1 [Compound 323365]
4

Same again, this time with O=c1[nH]c(-c2ccccn2)nc2c1CN(Cc1ccc(Cl)c(Cl)c1)CC2 [Compound 323342]
4

====

- Test system: H. influenzae
- Assay Name: Broth microdilution MIC testing
- Assay type: cell-based, Haemophilus influenzae
- Condition Description: H. influenzae
# note: exactly 8 µg/mL is not below, so it is criterion not met; use criterion met for MIC H. flu strictly under it

COc1ccc(CN2CCc3nc(-c4ccccn4)[nH]c(=O)c3C2)cc1O | criterion not met
O=c1[nH]c(-c2ccccn2)nc2c1CN(Cc1ccccc1N1CCCC1)CC2 | criterion not met
COc1cccc(CN2CCc3nc(-c4ccccn4)[nH]c(=O)c3C2)c1O | criterion not met
O=c1[nH]c(-c2ccccn2)nc2c1CN(Cc1ccc(Cl)cc1Cl)CC2 | criterion met
Cn1c(=O)n(C)c2cc(CN3CCc4nc(-c5ccccn5)[nH]c(=O)c4C3)ccc21 | criterion not met
COc1cc(CN2CCc3nc(-c4ccccn4)[nH]c(=O)c3C2)ccc1OCCO | criterion not met

Strictly below 8 µg/mL: is that where MIC H. flu of COc1ccc(CN2CCc3nc(-c4ccccn4)[nH]c(=O)c3C2)c(C)c1C sits?
criterion met

Same again, this time with COc1cc2c(cc1CN1CCc3nc(-c4ccccn4)[nH]c(=O)c3C1)OCO2
criterion not met

Same again, this time with O=c1[nH]c(-c2ccccn2)nc2c1CN(Cc1cccc(Br)c1Br)CC2
criterion met

Same again, this time with O=c1[nH]c(-c2ccccn2)nc2c1CN(Cc1cc3c(cc1Cl)OCO3)CC2
criterion not met

Same again, this time with CN(CCO)c1ccc(CN2CCc3nc(-c4ccccn4)[nH]c(=O)c3C2)cc1
criterion not met

Same again, this time with COc1ccc(CN2CCc3nc(-c4ccccn4)[nH]c(=O)c3C2)cc1Cn1cccn1
criterion not met

Same again, this time with O=c1[nH]c(-c2ccccn2)nc2c1CN(Cc1cc(Cl)ccc1Cl)CC2
criterion met

Same again, this time with O=c1[nH]c(-c2ccccn2)nc2c1CN(Cc1ccc(Br)cc1)CC2
criterion met

Same again, this time with CN(C)c1ccc(CN2CCc3nc(-c4ccccn4)[nH]c(=O)c3C2)cc1
criterion not met

====

- Tested on: H. influenzae
- Assay Name: Broth microdilution MIC testing
- Type: cell-based, Haemophilus influenzae
- Condition Description: Haemophilus influenzae, read-out: MIC H. flu
Collected MIC values appear next to each entry.

These recorded examples may help you get a feel for the data.
Clc1ccc(CN2CCc3nc(-c4ccccn4)ncc3C2)cc1 | 64 µg/mL
O=c1[nH]c(-c2ccco2)nc2c1CN(Cc1ccc(Cl)cc1)CC2 | > 64 µg/mL
O=c1[nH]c(-c2ccccn2)nc2c1CCN(Cc1ccc(Cl)cc1)CC2 | 0.5 µg/mL

Fill in the recorded MIC for this molecule, with H. influenzae as test system: O=C(Nc1ccc(Cl)cc1)N1CCc2nc(-c3ccccn3)[nH]c(=O)c2C1
> 128 µg/mL

Same again, this time with Cc1nc(-c2nc3c(c(=O)[nH]2)CN(Cc2ccc(Cl)cc2)CC3)cs1
64 µg/mL

Same again, this time with O=C(Cc1ccc(Cl)cc1)N1CCc2nc(-c3ccccn3)[nH]c(=O)c2C1
16 µg/mL

Same again, this time with CC1CN(Cc2ccc(Cl)cc2)Cc2c1nc(-c1ccccn1)[nH]c2=O (centres unmarked)
1 µg/mL

Same again, this time with COc1cccc(CN2CCc3nc(-c4ccncc4)nc(O)c3C2)c1
> 128 µg/mL
